Where do the numbers come from? From patent US20220112288A1.

tested.target: T1, human CD4 on cells (SKW3 cells; human PBMCs) (human, UniProt P01730 26-458)
T1 construct: whole, on cells; SKW3 CD4 knockout cells served as the negative cell line for the WT vs KO ratios; also called hCD4; SKW3 WT
protocol: FACS confirmation, supernatant on SKW3 WT cells, anti-hu Kappa FITC (Bkrd gMFI = 2500)
The threshold is inclusive: gMFI of exactly 7000 gMFI counts as condition met; values below receive condition not met.

[[record]]
binder = "75110_05E05A (antibody, V domains shown, Tested as non-clonal hybridoma supernatant (AlivaMab Mouse Kappa), detected with anti-mouse Fc and anti-human kappa) VH: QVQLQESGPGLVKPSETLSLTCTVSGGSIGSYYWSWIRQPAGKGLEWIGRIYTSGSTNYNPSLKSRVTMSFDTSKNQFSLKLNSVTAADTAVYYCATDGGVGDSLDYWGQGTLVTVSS VL: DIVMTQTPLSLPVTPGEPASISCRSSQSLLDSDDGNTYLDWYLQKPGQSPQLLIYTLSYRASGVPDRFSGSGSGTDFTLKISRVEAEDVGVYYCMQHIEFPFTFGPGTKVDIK"
label_value = "condition met"

[[record]]
binder = "75110_01C18A (antibody, V domains shown, Tested as non-clonal hybridoma supernatant (AlivaMab Mouse Kappa), detected with anti-mouse Fc and anti-human kappa) VH: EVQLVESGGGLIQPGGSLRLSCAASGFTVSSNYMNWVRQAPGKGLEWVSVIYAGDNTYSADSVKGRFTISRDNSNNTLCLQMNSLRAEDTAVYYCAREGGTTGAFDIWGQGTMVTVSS VL: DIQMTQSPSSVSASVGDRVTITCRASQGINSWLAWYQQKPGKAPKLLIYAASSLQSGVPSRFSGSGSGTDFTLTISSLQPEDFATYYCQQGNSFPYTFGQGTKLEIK"
label_value = "condition not met"

[[record]]
binder = "75110_04H17A (antibody, V domains shown, Tested as non-clonal hybridoma supernatant (AlivaMab Mouse Kappa), detected with anti-mouse Fc and anti-human kappa) VH: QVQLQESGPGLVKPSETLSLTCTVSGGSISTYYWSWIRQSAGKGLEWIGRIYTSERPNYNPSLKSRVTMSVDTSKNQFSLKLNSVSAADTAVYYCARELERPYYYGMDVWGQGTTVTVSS VL: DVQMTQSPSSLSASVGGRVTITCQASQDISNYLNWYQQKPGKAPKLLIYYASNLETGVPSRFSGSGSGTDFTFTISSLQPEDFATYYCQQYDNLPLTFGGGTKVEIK"
label_value = "condition met"

[[record]]
binder = "75110_05E13A (antibody, V domains shown, Tested as non-clonal hybridoma supernatant (AlivaMab Mouse Kappa), detected with anti-mouse Fc and anti-human kappa) VH: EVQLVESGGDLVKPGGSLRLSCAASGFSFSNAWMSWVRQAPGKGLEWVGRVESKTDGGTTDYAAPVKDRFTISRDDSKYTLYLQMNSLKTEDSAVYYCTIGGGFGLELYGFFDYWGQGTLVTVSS VL: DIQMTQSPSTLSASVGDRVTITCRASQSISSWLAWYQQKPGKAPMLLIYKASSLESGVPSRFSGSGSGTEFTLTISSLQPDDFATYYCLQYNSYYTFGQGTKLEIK"
label_value = "condition met"

[[record]]
binder = "75110_02I18A (antibody, V domains shown, Tested as non-clonal hybridoma supernatant (AlivaMab Mouse Kappa), detected with anti-mouse Fc and anti-human kappa) VH: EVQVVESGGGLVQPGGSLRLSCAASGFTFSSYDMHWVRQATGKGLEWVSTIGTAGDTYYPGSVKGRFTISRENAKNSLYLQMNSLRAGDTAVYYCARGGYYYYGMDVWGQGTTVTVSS VL: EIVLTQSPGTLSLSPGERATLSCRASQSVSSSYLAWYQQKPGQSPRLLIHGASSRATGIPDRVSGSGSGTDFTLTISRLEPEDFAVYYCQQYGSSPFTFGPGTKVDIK"
label_value = "condition not met"

